# TARGET ENTITY: MAGL (Homo sapiens, UniProt Q99685)
# Sequence (Q99685 whole entry): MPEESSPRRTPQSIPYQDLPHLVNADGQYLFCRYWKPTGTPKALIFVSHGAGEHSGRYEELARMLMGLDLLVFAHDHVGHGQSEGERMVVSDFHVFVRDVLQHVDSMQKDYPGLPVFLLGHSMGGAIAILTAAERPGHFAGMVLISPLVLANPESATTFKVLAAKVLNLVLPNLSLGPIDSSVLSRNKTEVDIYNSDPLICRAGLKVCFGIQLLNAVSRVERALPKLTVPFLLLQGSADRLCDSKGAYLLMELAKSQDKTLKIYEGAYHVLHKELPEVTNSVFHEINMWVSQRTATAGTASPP
# TEST DESCRIPTION: In vitro competitive substrate hydrolysis enzyme activity assay (pNPA), HEK293 cell lysates
# Type: biochemical
# Parameters: expressed in transfected cells; host or cells: HEK293
# CONDITION DETAILS: HEK293 lysate
Provide the reported IC50 of each item.
Report the figure in µM without appending any unit label.

Sample O=C(OC(C(F)(F)F)C(F)(F)F)N1CCC2(CC1)CC2C(=O)N1CCN(C2CC2)CC1 (racemic) [Example 34] — what was its IC50?
0.148

How about this compound: O=C(Nc1cccnc1)[C@@H]1CC12CCN(C(=O)OC(C(F)(F)F)C(F)(F)F)CC2 (single isomer, unassigned) [Example 3]
0.435

How about this compound: CN(C(=O)[C@@H]1CC12CCN(C(=O)OC(C(F)(F)F)C(F)(F)F)CC2)c1cnccn1 (single isomer, unassigned) [Example 11]
0.0993
